Data origin, for the record: patent US7763615B2

System: A549
Assay: cells
Format: cell-based
Conditions: A549, 48 hours exposure, SRB; read-out: LC50 (the source's name)
Text: The finality of these assays is to interrupt the growth of a “in vitro” tumor cell culture by means of a continued exhibition of the cells to the sample to be testing. A colorimetric type of assay, using sulphorhodamine B (SRB) reaction has been adapted for a quantitative measurement of cell growth and viability [following the technique described by Philip Skehan, et al. (1990), New colorimetric cytotoxicity assay for anticancer drug screening, J. Natl. Cancer Inst., 82:1107-1112] […]
This listing pairs compounds with measured CC50.

- Compound: "COc1c(C)cc2c(c1O)[C@@H]1C3[C@@H]4SC[C@]5(NC(C)Cc6c5[nH]c5ccc(F)cc65)C(=O)COC[C@@H](c5c6c(c(C)c(OC(C)=O)c54)OCO6)N3[C@@H](C#N)[C@H](C2)N1C (some centres unmarked)"
  CC50 [µM]: 6.67
- Compound: "COc1c(C)cc2c(c1O)[C@@H]1C3[C@@H]4SC[C@]5(NC(C)Cc6c5[nH]c5ccc(O)cc65)C(=O)COC[C@@H](c5c6c(c(C)c(OC(C)=O)c54)OCO6)N3[C@@H](C#N)[C@H](C2)N1C (some centres unmarked)"
  CC50 [µM]: 12.6
- Compound: "COc1c(C)cc2c(c1O)[C@@H]1C3[C@@H]4SC[C@]5(C(=O)COC[C@@H](c6c7c(c(C)c(OC(C)=O)c64)OCO7)N3[C@@H](C#N)[C@H](C2)N1C)c1[nH]c2ccccc2c1CCN5C (some centres unmarked) [Compound 15]"
  CC50 [µM]: 1.27
- Compound: "COc1c(C)cc2c(c1O)[C@@H]1C3[C@@H]4SC[C@]5(NC(C)Cc6c5[nH]c5ccccc65)C(=O)COC[C@@H](c5c6c(c(C)c(OC(C)=O)c54)OCO6)N3[C@@H](C#N)[C@H](C2)N1C (some centres unmarked)"
  CC50 [µM]: 12.9
- Compound: "COc1c(C)cc2c(c1O)[C@@H]1C3[C@@H]4SC[C@]5(C(=O)COC[C@@H](c6c7c(c(C)c(OC(C)=O)c64)OCO7)N3[C@@H](C#N)[C@H](C2)N1C)c1[nH]c2ccccc2c1CCN5C (some centres unmarked) [Compound 14]"
  CC50 [µM]: 6.86
